molecular target: AgHof1; assay: SPOT peptide array binding signal intensity (averaged, normalized) (arbitrary units (background-subtracted, floor 0; scale differs between SH3 domains)); higher = stronger binding of the SH3 domain to the peptide
property: SPOT peptide array binding signal intensity
Reply with just the number.

For reference, reported SPOT peptide array binding signal intensity for PKMLPIPSKPTLFDL stands at 6

For reference, reported SPOT peptide array binding signal intensity for NRLRKRLNLPSEISI stands at 45.2
